# TESTED TARGET: RORγ ligand-binding domain (Homo sapiens)
# Construct: Gal4 (galactose-responsive transcription factor); expressed in transfected cells; host or cells: HEK293, transient co-transfection
# Sequence (P51449 269-508 limits assumed): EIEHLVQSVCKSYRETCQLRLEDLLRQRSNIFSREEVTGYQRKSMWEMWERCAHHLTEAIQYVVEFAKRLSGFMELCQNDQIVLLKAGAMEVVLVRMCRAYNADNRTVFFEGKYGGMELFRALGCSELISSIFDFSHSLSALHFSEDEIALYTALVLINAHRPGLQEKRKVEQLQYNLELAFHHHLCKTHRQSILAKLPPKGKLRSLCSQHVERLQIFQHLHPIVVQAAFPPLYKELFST
# EXPERIMENTAL DETAILS: RORγ Reporter Assay (Gal4)
# Format: cell-based
# PARTICULARS: HEK293 cells, luciferase reporter, 24 h incubation, absolute IC50; read-out: IC50
Below, each of the compounds is paired with its reported pIC50 value.
pIC50 field: float, defined as -log10 of concentration (mol/L).

In [3]: df
Out[3]:
                                   compound  reading
0  CCN(Cc1ccc(C(F)(F)F)cc1)c1ncnc2c1ccn2C[C@@]1(O)CCN(CC(N)=O)C[C@@H]1O (single isomer, unassigned) [Example L5-2-1-1]     8.85
1  Cn1cc(-c2ccc(CN(c3ncnc4c3ccn4C[C@@]3(O)CCN(CC(N)=O)C[C@@H]3O)C3CC3)c(F)c2)cn1 (relative stereo) [R5-3″]     8.40

Query pIC50 on RORγ ligand-binding domain (Homo sapiens) for NC(=O)CN1CC[C@@H](Cn2ccc3c(N(Cc4ccc(C(F)(F)F)cc4)C4CC4)ncnc32)[C@H](O)C1 (single isomer, unassigned) [Example P6-13-2] 8.70

###

# TESTED TARGET: RORγ ligand-binding domain (Homo sapiens, UniProt P51449)
# Construct: Gal4 (galactose-responsive transcription factor); expressed in transfected cells; host or cells: HEK293, transient co-transfection
# EXPERIMENTAL DETAILS: RORγ Reporter Assay (Gal4)
# Format: cell-based
# PARTICULARS: HEK293 cells, luciferase reporter, 24 h incubation, absolute IC50; read-out: IC50
PROPERTY: IC50 (nM)
Reply numerically in nM, unit not repeated.

Known results for compounds:
COMPOUND	IC50 [nM]
NC(=O)CN1CC[C@@H](Cn2ccc3c(N4CCOC[C@@H]4c4ccc(C(F)(F)F)cn4)ncnc32)[C@H](F)C1 (single isomer, unassigned) [Example Q4-1-1]	170
CCN(Cc1ccc(-c2cnn(C)c2)cc1F)c1ncnc2c1ccn2C[C@@H]1CCN(CC(N)=O)C[C@H]1O (relative stereo) [P6-35″]	24
CCN(Cc1ccc(C(F)(F)F)cc1F)c1ncnc2c1ccn2C[C@@]1(O)CCN(CC(N)=O)C[C@@H]1O (single isomer, unassigned) [Example L5-3-1-2]	4.4
NC(=O)CN1CCC(Cn2cc(F)c3c(N(Cc4ccc(C(F)(F)F)nc4)C4CC4)ncnc32)CC1 [Example P6-10]	93
CCN(Cc1ccc(C(F)(F)F)cc1)c1ncnc2c1ccn2C[C@@]1(O)CCN(CC(N)=O)C[C@@H]1O (single isomer, unassigned) [Example L5-2-1-2]	2
NC(=O)CN1CCC(Cn2ccc3c(N(Cc4ccc(C(F)(F)F)cc4)C4CC4)ncnc32)C(F)(F)C1 (single isomer, unassigned) [Example K8-1-1]	9

Field: next compound
Return reported IC50; argument: NC(=O)CN1CCC(Cn2ccc3c(N4CCOC[C@@H]4c4ccc(C(F)(F)F)cn4)ncnc32)CC1 [Example Q4-2] 330
